Molecular target: 5HT2 (Rattus norvegicus)
Experiment: 5HT2 Blockade in vivo (antagonism of 5HT induced pressor responses)
Design: Spontaneously hypertensive rats were anesthetized with sodium pentobarbital; from tissue; host or cells: whole animal: anesthetized spontaneously hypertensive rats (vasculature); species or system spontaneously hypertensive rats
Details: rat, iv, read-out: 5-HT-Induced Pressor Response ED50
Cut-off 0.03 mg/kg on ED50: below means Condition met, at or above means Condition not met.

Please review the entries below; each comes with its answer.
> print(dat)
                                   compound     classification
1  O=c1[nH]c2cscc2c(=O)n1CCN1CCC(=C(c2ccc(F)cc2)c2ccc(F)cc2)CC1 [Example 4]  Condition not met
2  CC(=O)n1c(=O)n(CCN2CCC(C(=O)c3ccc(F)cc3)CC2)c(=O)c2cscc21 [Example 11]      Condition met
3  O=C(c1ccc(F)cc1)C1CCN(CCn2c(=O)[nH]c3ccsc3c2=O)CC1 [Example 1]      Condition met
4  Cc1scc2[nH]c(=O)n(CCN3CCC(C(=O)c4ccc(F)cc4)CC3)c(=O)c12 [Example 16]  Condition not met
5  CC(=O)n1c(=O)n(CCN2CCC(C(=O)c3ccc(F)cc3)CC2)c(=O)c2ccsc21 [Example 3]      Condition met

ED50 strictly < 0.03 mg/kg for this compound? O=C(c1ccc(F)cc1)C1CCN(CCn2c(=O)[nH]c3cscc3c2=O)CC1 [Example 10]
Condition not met

---

Target: 5HT1A receptor (Rattus norvegicus, UniProt P19327)
Construct: Membrane fragments were prepared from prefrontal cortex; from tissue; host or cells: prefrontal/frontal cortex of female rats (about 150 g), membrane fragments
Sequence (P19327 1-422): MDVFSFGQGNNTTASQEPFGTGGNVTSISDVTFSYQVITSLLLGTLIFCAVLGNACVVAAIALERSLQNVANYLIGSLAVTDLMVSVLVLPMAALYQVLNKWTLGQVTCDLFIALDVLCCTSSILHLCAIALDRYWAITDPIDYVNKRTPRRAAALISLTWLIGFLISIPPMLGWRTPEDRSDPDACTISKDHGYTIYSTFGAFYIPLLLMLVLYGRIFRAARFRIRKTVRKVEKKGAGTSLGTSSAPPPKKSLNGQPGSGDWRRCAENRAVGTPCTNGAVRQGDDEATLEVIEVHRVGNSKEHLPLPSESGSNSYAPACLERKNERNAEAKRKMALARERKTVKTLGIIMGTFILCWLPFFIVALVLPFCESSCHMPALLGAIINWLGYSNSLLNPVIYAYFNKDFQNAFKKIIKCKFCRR
Assay: Brain Serotonin (5HT1A) radioreceptor Assay (3H-8-OH DPAT displacement, rat frontal cortex membranes)
Type: binding
property: IC50 (µM)
Quick note: give the figure in µM, leave out the unit.

Field IC50 (entry O=C(c1ccc(F)cc1)C1CCN(CCn2c(=O)[nH]c3ccccc3c2=O)CC1 [Ketanserin, reference compound] ) reads 24.5

---

Target: UniProtKB P14842
Experiment: Brain Serotonin (5-HT2) Radioreceptor Assay (3H-ketanserin displacement, rat frontal cortex membranes)
Type: binding
Parameters: dissected from brains obtained from female rats; from tissue; host or cells: frontal cortex of female rats (about 150 g), membrane fragments
Details: 15 min at 37° C
pIC50: −log10 of the molar value.
Think of 8 as a floor: if pIC50 stands on it or above, it is yes (1); beneath it, no (0).

API: above_or_equal(metric=pIC50, cutoff=8) for item CCCCn1c(=O)n(CCN2CCC(C(=O)c3ccc(F)cc3)CC2)c(=O)c2cscc21 [Example 15, Hydrate]
no (0)

API: above_or_equal(metric=pIC50, cutoff=8) for item O=c1[nH]c2cscc2c(=O)n1CCN1CC=C(c2ccccc2)CC1
no (0)

API: above_or_equal(metric=pIC50, cutoff=8) for item O=c1[nH]c2cscc2c(=O)n1CCCCCN1CCC(=C(c2ccc(F)cc2)c2ccc(F)cc2)CC1
no (0)

API: above_or_equal(metric=pIC50, cutoff=8) for item Cc1scc2[nH]c(=O)n(CCN3CCC(=C(c4ccc(F)cc4)c4ccc(F)cc4)CC3)c(=O)c12
no (0)

API: above_or_equal(metric=pIC50, cutoff=8) for item CC(=O)n1c(=O)n(CCN2CCC(C(=O)c3ccc(F)cc3)CC2)c(=O)c2ccsc21
yes (1)

---

System: 5HT2 (Rattus norvegicus, UniProt P14842) | Read-out: log10(IC50)
Sequence (P14842 whole entry): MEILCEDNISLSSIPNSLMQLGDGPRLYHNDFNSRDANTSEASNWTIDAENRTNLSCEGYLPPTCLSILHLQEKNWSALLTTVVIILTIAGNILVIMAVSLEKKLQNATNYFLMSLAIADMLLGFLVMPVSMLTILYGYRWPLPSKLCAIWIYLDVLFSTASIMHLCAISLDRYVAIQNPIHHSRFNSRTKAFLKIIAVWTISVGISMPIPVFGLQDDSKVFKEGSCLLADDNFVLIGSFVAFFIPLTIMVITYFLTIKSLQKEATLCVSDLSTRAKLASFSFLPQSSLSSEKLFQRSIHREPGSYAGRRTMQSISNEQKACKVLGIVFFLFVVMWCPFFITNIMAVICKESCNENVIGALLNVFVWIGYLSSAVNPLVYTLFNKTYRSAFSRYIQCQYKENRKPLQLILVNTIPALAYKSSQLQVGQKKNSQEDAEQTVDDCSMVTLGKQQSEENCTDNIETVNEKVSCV
Scale: log10; quantity: IC50; unit before log: nM

> print(dat)
                                  structure     property  numeric.readout
1  CC(C)(C)C(=O)n1c(=O)n(CCN2CCC(=C(c3ccc(F)cc3)c3ccc(F)cc3)CC2)c(=O)c2cscc21  log10(IC50)            -0.51
2  O=c1[nH]c2ccsc2c(=O)n1CCN1CCC(=C(c2ccc(F)cc2)c2ccc(F)cc2)CC1  log10(IC50)             0.85
3  O=C(c1ccc(F)cc1)C1CCN(CCn2c(=O)[nH]c3sccc3c2=O)CC1  log10(IC50)             0.20

Field log10(IC50) (entry Cn1c(=O)n(CCN2CCC(=C(c3ccc(F)cc3)c3ccc(F)cc3)CC2)c(=O)c2cscc21 ) reads 0.26

Field log10(IC50) (entry O=c1[nH]c2sccc2c(=O)n1CCN1CCC(=C(c2ccc(F)cc2)c2ccc(F)cc2)CC1 ) reads -0.10

Field log10(IC50) (entry O=C(c1ccc(F)cc1)C1CCN(CCCCn2c(=O)[nH]c3cscc3c2=O)CC1 ) reads 1.10

---

Biological target: 5HT1A receptor (Rattus norvegicus, UniProt P19327)
Construct: Membrane fragments were prepared from prefrontal cortex; from tissue; host or cells: prefrontal/frontal cortex of female rats (about 150 g), membrane fragments
Experiment: Brain Serotonin (5HT1A) radioreceptor Assay (3H-8-OH DPAT displacement, rat frontal cortex membranes)
Type: binding
Conditions: rat frontal cortex membranes, 3H-8-OH DPAT, pH 7.4; read-out: Brain 5-HT1 Receptor IC50
property: IC50 (µM)
Quick note: give the figure in µM, leave out the unit.

Look over these answered cases.
> print(dat)
                                  structure                         target.under.test  units.symbol  numeric.readout
1  Cn1c(=O)n(CCN2CCC(=C(c3ccc(F)cc3)c3ccc(F)cc3)CC2)c(=O)c2cscc21  5HT1A receptor (Rattus norvegicus, UniProt P19327)            µM                3
2  O=C(c1ccc(F)cc1)C1CCN(CCn2c(=O)[nH]c3ccsc3c2=O)CC1  5HT1A receptor (Rattus norvegicus, UniProt P19327)            µM               16
3  O=C(c1ccc(F)cc1)C1CCN(CCn2c(=O)[nH]c3cscc3c2=O)CC1  5HT1A receptor (Rattus norvegicus, UniProt P19327)            µM               12
4  O=C(c1ccc(F)cc1)C1CCN(CCCCn2c(=O)[nH]c3cscc3c2=O)CC1  5HT1A receptor (Rattus norvegicus, UniProt P19327)            µM             0.21

Kindly review the next compound as well.
Field IC50 (entry O=c1[nH]c2cscc2c(=O)n1CCCCCN1CCC(=C(c2ccc(F)cc2)c2ccc(F)cc2)CC1 ) reads 0.27

---

# ED50 values compiled below
Biological target: 5HT2 (Rattus norvegicus)
Assay: 5HT2 Blockade in vivo (antagonism of 5HT induced pressor responses)
Set-up: Spontaneously hypertensive rats were anesthetized with sodium pentobarbital; from tissue; host or cells: whole animal: anesthetized spontaneously hypertensive rats (vasculature); species or system spontaneously hypertensive rats
Conditions: rat, iv, read-out: 5-HT-Induced Pressor Response ED50
Method: Antagonism of 5HT induced pressor responses was used to assess 5HT2 blockade in vivo. Spontaneously hypertensive rats were anesthetized with sodium pentobarbital (50 mg/kg, i.p.). The right carotid artery and vein were cannulated for pressure recording and drug injection, respectively. […] After a baseline had been reestablished, bolus injections of 5HT (100 μg/kg, i.v.) were given and the MAP responses were evaluated both pre- and post-drug administration. […]
Quick note: give the figure in mg/kg, leave out the unit.

Field ED50 (entry O=C(c1ccc(F)cc1)C1CCN(CCn2c(=O)[nH]c3sccc3c2=O)CC1 [Example 2] ) reads 0.016

Field ED50 (entry O=C(c1ccccc1)n1c(=O)n(CCN2CCC(=C(c3ccc(F)cc3)c3ccc(F)cc3)CC2)c(=O)c2cscc21 [Example 8] ) reads 0.038

Field ED50 (entry O=c1[nH]c2sccc2c(=O)n1CCN1CCC(=C(c2ccc(F)cc2)c2ccc(F)cc2)CC1 [Example 6] ) reads 0.23

Field ED50 (entry O=c1[nH]c2cocc2c(=O)n1CCN1CCC(=C(c2ccc(F)cc2)c2ccc(F)cc2)CC1 [Example 9] ) reads 0.02

Field ED50 (entry O=c1[nH]c2ccsc2c(=O)n1CCN1CCC(=C(c2ccc(F)cc2)c2ccc(F)cc2)CC1 [Example 5] ) reads 0.017

Field ED50 (entry CC(C)(C)C(=O)n1c(=O)n(CCN2CCC(=C(c3ccc(F)cc3)c3ccc(F)cc3)CC2)c(=O)c2cscc21 [Example 7] ) reads 0.038

Field ED50 (entry Cn1c(=O)n(CCN2CCC(C(=O)c3ccc(F)cc3)CC2)c(=O)c2cscc21 [Example 14] ) reads 0.018
